# Target under test: T1, Human IL-23 no linker (human, UniProt P29460 23-328)
# T1 construct: also called recombinant IL-23 without linker
# T1 sequence 1: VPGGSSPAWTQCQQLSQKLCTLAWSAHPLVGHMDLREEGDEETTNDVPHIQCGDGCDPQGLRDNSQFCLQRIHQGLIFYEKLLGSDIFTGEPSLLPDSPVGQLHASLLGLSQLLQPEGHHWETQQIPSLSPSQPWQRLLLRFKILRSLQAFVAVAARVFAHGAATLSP
# T1 sequence 2: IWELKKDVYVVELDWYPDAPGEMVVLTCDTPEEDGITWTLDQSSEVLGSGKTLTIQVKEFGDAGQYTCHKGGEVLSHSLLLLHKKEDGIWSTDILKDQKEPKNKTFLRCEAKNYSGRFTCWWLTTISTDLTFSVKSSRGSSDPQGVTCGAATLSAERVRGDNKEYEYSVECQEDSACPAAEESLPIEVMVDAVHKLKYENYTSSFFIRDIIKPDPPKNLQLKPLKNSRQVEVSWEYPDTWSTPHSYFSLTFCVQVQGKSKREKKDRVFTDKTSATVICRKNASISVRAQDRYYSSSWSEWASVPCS
# Test name: SPR, ProteOn XPR36, global 1:1 fit
# Experimental: B) Affinities were measured for humanized antibodies derived from mouse antibody 6B8.
Listed next: entries and their corresponding koff.

Binder: Antibody C (antibody, human IgG1, kappa, L234A L235A, V domains shown, Humanized 6B8, human IgG1-KO (L234A/L235A) / kappa; also called 6B8-IgG1KO-2 with IgK-65; 6B8CVH-02 / 6B8CVK-65) VH: QVQLVQSGAEVKKPGSSVKVSCKASGYTFTDQTIHWMRQAPGQGLEWIGYIYPRDDSPKYNENFKGKVTITADKSTSTAYMELSSLRSEDTAVYYCAIPDRSGYAWFIYWGQGTLVTVSS VL: DIQMTQSPSSLSASVGDRVTITCKASRDVAIAVAWYQQKPGKVPKLLLFWASTRHTGVPDRFSGSGSGTDFTLTISSLQPEDLADYYCHQYSSYPFTFGQGTKLEIKR
koff: 1.65e-05 s⁻¹

Binder: Antibody B (antibody, human IgG1, kappa, L234A L235A, V domains shown, Humanized 6B8, human IgG1-KO (L234A/L235A) / kappa; also called 6B8-IgG1KO-5 with IgK-66; 6B8CVH-05 / 6B8CVK-66) VH: QVQLVQSGAEVKKPGSSVKVSCKASGFTFTDQTIHWVRQAPGQGLEWMGYIYPRDDSPKYNENFKGKVTLTADKSTSTAYMELSSLRSEDTAVYYCAIPDRSGYAWFIYWGQGTLVTVSS VL: DIQMTQSPSSLSASVGDRVTITCKASRDVAIAVAWYQQKPGKVPKLLIYWASTRHTGVPSRFSGSGSRTDFTLTISSLQPEDVADYFCHQYSSYPFTFGSGTKLEIKR
koff: < 1e-06 s⁻¹

Binder: Mouse antibody 6B8 (antibody, V domains shown, Mouse monoclonal antibody from hybridoma; also called Mouse 6B8; 6B8Vk) VH: QVQLQQSDAELVKPGTSVKTSCKISGNTFTDQTIHWMKQRPEQGLEWIGYIYPRDDSPKYNENFKGKATLTADKSSSTAYMQLNSLTSEDSAVYFCAIPDRSGYAWFIYWGQGTLVTVSS VL: DIVMTQSHKFLSTSVGDRVTITCKASRDVAIAVAWYQQKPGQSPKLLLFWASTRHTGVPDRFTGSGSRTDFTLTISNVQSEDLADYFCHQYSSYPFTFGSGTKLEIK
koff: 1.38e-05 s⁻¹

Binder: Antibody D (antibody, human IgG1, kappa, L234A L235A, V domains shown, Humanized 6B8, human IgG1-KO (L234A/L235A) / kappa; also called 6B8-IgG1KO-5 with IgK-65; 6B8CVH-05 / 6B8CVK-65) VH: QVQLVQSGAEVKKPGSSVKVSCKASGFTFTDQTIHWVRQAPGQGLEWMGYIYPRDDSPKYNENFKGKVTLTADKSTSTAYMELSSLRSEDTAVYYCAIPDRSGYAWFIYWGQGTLVTVSS VL: DIQMTQSPSSLSASVGDRVTITCKASRDVAIAVAWYQQKPGKVPKLLLFWASTRHTGVPDRFSGSGSGTDFTLTISSLQPEDLADYYCHQYSSYPFTFGQGTKLEIKR
koff: 4.93e-05 s⁻¹

Binder: antibody C1273 (disclosed in WO 2007/005955) (antibody, V domains shown) VH: DVNLVESGGGLVKPGGSLKLSCAASGFTFSSYTMSWVRQTPEKRLEWVATISSGGTYTYYPDSVKGRFTISRDNAKNTLYLQMSSLKSEDTAMFYCTRDNHAYDRGPFFDYWGQGATLTVSS VL: DIVMSQSPSSLVVSVGEKVTMSCKSSQNLFYRSNQKNHLAWYQQKPGQSPTLLIYWTSTRESGVPDRFTGSGSGTDFTLTISRVKAEDLAVYYCQQYYSYPPTFGGGTKLEIK
koff: 5.75e-06 s⁻¹
